Test system: Staphylococcus aureus
protocol notes: Antimicrobial activity against penicillin-resistant Staphylococcus aureus ATCC 29213 assessed as ratio of MIC after and before 15 serial passages preincubated followed by replating and measured after 24 hrs
Format: functional
experimental readout: Ratio

Known results for compounds:
compound | study system | result
C[n+]1c(/C=C/c2c[nH]c3ccccc23)cc(N2CCCCC2)c2ccccc21.[I-] | Staphylococcus aureus | 4
CCn1cc(C(=O)O)c(=O)c2cc(F)c(N3CCNCC3)cc21 [NORFLOXACIN] | Staphylococcus aureus | 500
C[n+]1c(/C=C/c2cc3ccccc3[nH]2)cc(N2CCCCC2)c2ccccc21.[I-] | Staphylococcus aureus | 4

Shift focus to the following entry.
Measured Ratio, CO[C@H]1/C=C/O[C@@]2(C)Oc3c(C)c(O)c4c(O)c(c(/C=N/N5CCN(C)CC5)c(O)c4c3C2=O)NC(=O)/C(C)=C\C=C\[C@H](C)[C@H](O)[C@@H](C)[C@@H](O)[C@@H](C)[C@H](OC(C)=O)[C@@H]1C [RIFAMPIN] : 2000
